tested on: Escherichia coli TOP10; experiment: shrunken log2 fold change of peptide-encoding DNA abundance (4.5 h post-induction vs induction); higher = less antimicrobial activity (less host growth inhibition); details: time post-induction: 4.5 h; library: site-saturation at positions 5, 18, 19, 20
Parameter shrunken log2 fold change: see the listing below.

Look over these answered cases.
RRIRCRPPRLPRPRPRPVKMPRP	-0.248
RRIRCRPPRLPRPRPRPNLYPRP	-0.347
RRIRSRPPRLPRPRPRPRAWPRP	0.0718
RRIRYRPPRLPRPRPRPVYIPRP	-1.27
RRIRFRPPRLPRPRPRPHWVPRP	-0.523
RRIRNRPPRLPRPRPRPRCTPRP	-0.263
RRIRARPPRLPRPRPRPWWHPRP	-0.0749
RRIRARPPRLPRPRPRPWDWPRP	0.991

// recorded shrunken log2 fold change for `RRIRFRPPRLPRPRPRPAWRPRP` : 0.765

// recorded shrunken log2 fold change for `RRIRERPPRLPRPRPRPWMMPRP` : -0.139

====

Parameter shrunken log2 fold change: see the listing below.
tested on: Escherichia coli TOP10; test: shrunken log2 fold change of peptide-encoding DNA abundance (4.5 h post-induction vs induction); higher = less antimicrobial activity (less host growth inhibition); settings: time post-induction: 4.5 h; library: site-saturation at positions 5, 18, 19, 20
Enter a number only.

Look over these answered cases.
RRIRIRPPRLPRPRPRPAKGPRP	-0.224
RRIRWRPPRLPRPRPRPMRDPRP	0.814
RRIRFRPPRLPRPRPRPKHAPRP	0.416
RRIRPRPPRLPRPRPRPINRPRP	-0.11
RRIRNRPPRLPRPRPRPLCYPRP	-0.781

shrunken log2 fold change of `RRIRERPPRLPRPRPRPPCWPRP` , assay on Escherichia coli TOP10, is 0.0636

shrunken log2 fold change of `RRIRPRPPRLPRPRPRPIDGPRP` , assay on Escherichia coli TOP10, is 0.023

shrunken log2 fold change of `RRIRERPPRLPRPRPRPNFDPRP` , assay on Escherichia coli TOP10, is -0.145

====

system: Escherichia coli TOP10; assay: shrunken log2 fold change of peptide-encoding DNA abundance (4.5 h post-induction vs induction); higher = less antimicrobial activity (less host growth inhibition); details: time post-induction: 4.5 h; library: site-saturation at positions 5, 18, 19, 20;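 note: peptides expressed intracellularly from a pBAD plasmid library in pooled LB shake-flask culture, induced with 0.3% L-arabinose, DNA abundance read by NGS, three biological replicates, DESeq2 with apeglm shrinkage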
Parameter shrunken log2 fold change: see the listing below.

RRIRSRPPRLPRPRPRPKCTPRP	-0.0418
RRIRKRPPRLPRPRPRPYMKPRP	-0.134
RRIRNRPPRLPRPRPRPSSTPRP	-0.201
RRIRDRPPRLPRPRPRPYSEPRP	-0.0337
RRIRIRPPRLPRPRPRPSQDPRP	-0.31

// recorded shrunken log2 fold change for `RRIRERPPRLPRPRPRPNALPRP` : -0.247

// recorded shrunken log2 fold change for `RRIRGRPPRLPRPRPRPLCFPRP` : 0.705

// recorded shrunken log2 fold change for `RRIRYRPPRLPRPRPRPKPRPRP` : 0.515

// recorded shrunken log2 fold change for `RRIRRRPPRLPRPRPRPYRHPRP` : -0.265

// recorded shrunken log2 fold change for `RRIRPRPPRLPRPRPRPNPEPRP` : -0.0226

// recorded shrunken log2 fold change for `RRIRQRPPRLPRPRPRPRQFPRP` : -0.121

// recorded shrunken log2 fold change for `RRIRGRPPRLPRPRPRPKMYPRP` : 0.107

// recorded shrunken log2 fold change for `RRIRVRPPRLPRPRPRPTKTPRP` : 0.0337

// recorded shrunken log2 fold change for `RRIRLRPPRLPRPRPRPPGHPRP` : 0.224

// recorded shrunken log2 fold change for `RRIRARPPRLPRPRPRPYPVPRP` : -0.191

// recorded shrunken log2 fold change for `RRIRFRPPRLPRPRPRPYFIPRP` : -1.12

// recorded shrunken log2 fold change for `RRIRFRPPRLPRPRPRPDTRPRP` : -0.324
